# Target or system: BRG-1 (Homo sapiens, UniProt P51532)
# Construct: made in house; host or cells: High Five insect cells
# Sequence (P51532 whole entry): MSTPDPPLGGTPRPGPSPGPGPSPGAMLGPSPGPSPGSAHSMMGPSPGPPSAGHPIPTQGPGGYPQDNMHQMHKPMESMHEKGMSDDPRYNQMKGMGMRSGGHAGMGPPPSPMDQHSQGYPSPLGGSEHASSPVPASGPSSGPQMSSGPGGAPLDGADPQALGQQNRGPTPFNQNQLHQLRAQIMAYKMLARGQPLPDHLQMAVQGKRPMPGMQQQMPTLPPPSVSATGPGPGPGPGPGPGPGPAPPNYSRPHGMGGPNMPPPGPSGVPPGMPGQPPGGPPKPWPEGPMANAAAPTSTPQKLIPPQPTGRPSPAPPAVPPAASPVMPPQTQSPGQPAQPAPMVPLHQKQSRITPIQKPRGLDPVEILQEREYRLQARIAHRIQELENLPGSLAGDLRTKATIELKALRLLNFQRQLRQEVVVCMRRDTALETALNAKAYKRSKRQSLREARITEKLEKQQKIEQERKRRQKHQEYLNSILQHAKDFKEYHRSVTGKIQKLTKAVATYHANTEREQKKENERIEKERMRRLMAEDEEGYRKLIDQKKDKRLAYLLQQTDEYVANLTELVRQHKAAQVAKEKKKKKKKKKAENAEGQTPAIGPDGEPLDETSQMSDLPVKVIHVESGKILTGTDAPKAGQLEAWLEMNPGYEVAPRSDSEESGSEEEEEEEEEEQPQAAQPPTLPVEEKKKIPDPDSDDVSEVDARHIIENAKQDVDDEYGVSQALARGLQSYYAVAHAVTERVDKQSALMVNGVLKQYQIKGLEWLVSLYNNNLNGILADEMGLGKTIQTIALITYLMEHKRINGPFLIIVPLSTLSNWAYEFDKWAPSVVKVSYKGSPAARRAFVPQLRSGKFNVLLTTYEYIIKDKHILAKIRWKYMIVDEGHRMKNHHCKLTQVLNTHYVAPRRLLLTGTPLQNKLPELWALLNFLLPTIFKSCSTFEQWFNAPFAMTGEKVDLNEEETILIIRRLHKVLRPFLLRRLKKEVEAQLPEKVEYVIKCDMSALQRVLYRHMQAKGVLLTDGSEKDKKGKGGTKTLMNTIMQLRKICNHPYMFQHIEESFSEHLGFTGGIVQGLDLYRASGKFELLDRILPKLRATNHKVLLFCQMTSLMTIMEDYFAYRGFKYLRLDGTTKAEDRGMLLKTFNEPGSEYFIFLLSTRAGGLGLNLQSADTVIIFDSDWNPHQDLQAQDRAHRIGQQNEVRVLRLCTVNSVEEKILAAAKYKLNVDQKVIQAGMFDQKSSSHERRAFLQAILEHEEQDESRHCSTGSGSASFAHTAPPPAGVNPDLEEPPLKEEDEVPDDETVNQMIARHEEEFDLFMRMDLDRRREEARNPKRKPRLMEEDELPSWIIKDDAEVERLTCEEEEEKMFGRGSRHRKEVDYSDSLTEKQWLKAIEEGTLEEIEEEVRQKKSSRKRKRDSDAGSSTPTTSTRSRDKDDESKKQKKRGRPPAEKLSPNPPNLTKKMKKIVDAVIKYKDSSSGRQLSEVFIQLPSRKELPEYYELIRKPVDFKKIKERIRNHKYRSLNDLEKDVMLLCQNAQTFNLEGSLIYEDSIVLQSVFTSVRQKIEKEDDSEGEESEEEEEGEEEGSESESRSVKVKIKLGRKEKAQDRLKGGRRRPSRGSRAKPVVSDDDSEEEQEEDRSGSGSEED
# Assay notes: ATPase catalytic activity of BRG-1, ADP-Glo in vitro biochemical assay
# Condition details: ATPase catalytic activity, ADP-Glo; 30 nM BRG-1, 400 μM ATP; read-out: BRG1 IC50
Items are presented alongside their recorded IC50.

>  <Molecule>
O=C(NCc1cc2nc(N3CCCC4CCCC43)ccc2cn1)c1ccc2c(c1)S(=O)(=O)CCOC2 (stereo not shown) [Compound 652]

>  <Value unit>
nM

>  <IC50>
3190

$$$$
>  <Molecule>
O=C(NCc1cc2nc(N3CCOc4cc(C5CC5)cnc43)ccc2cn1)c1ccc2c(c1)S(=O)(=O)CCOC2 [Compound 503]

>  <Value unit>
nM

>  <IC50>
73.7

$$$$
>  <Molecule>
O=C(NCc1cc2nc(N3CCCc4ccc(OC(F)F)nc43)ccc2cn1)c1ccc2c(c1)S(=O)(=O)CCOC2 [Compound 643]

>  <Value unit>
nM

>  <IC50>
889

$$$$
>  <Molecule>
CC1CN(c2ccc3cnc(CNC(=O)c4ccc5c(c4)S(=O)(=O)CCOC5)cc3n2)c2ncccc2N1C (stereo not shown) [Compound 649]

>  <Value unit>
nM

>  <IC50>
750

$$$$

---

Below, each of the molecules is paired with its reported pIC50 value.
# Target or system: BRG-1 (Homo sapiens)
# Construct: made in house; host or cells: High Five insect cells
# Assay notes: ATPase catalytic activity of BRG-1, ADP-Glo in vitro biochemical assay
# Condition details: ADP-Glo ATPase assay, 30 nM BRG-1, 400 μM ATP; read-out: BRG1 IC50
pIC50: −log10 of the molar value.
Readout label: pIC50

>  <Molecule>
C[C@@H]1CN(c2cncc(-c3ccc4cnc(CNC(=O)c5ccc6c(c5)S(=O)(=O)CCOC6)cc4c3)n2)C[C@H](C)O1

>  <Recorded number>
7.67

$$$$
>  <Molecule>
O=C(NCc1cc2nc(N3CCCc4cnc(OC5CC5)cc43)ccc2cn1)c1ccc2c(c1)S(=O)(=O)CCOC2

>  <Recorded number>
6.75

$$$$
>  <Molecule>
COC[C@H](C)Nc1cccc(-c2ccc3cnc(CNC(=O)c4ccc(C(F)F)c(S(C)(=O)=O)c4)cc3n2)n1

>  <Recorded number>
5.30

$$$$
>  <Molecule>
O=C(NCc1cc2nc(N3CCOc4cc(N5CCCC5)cnc43)ccc2cn1)c1ccc2c(c1)S(=O)(=O)CCOC2

>  <Recorded number>
6.72

$$$$
>  <Molecule>
CC(=O)N1CCOc2c(-c3ccc4cnc(CNC(=O)c5ccc6c(c5)S(=O)(=O)CCOC6)cc4n3)cccc21

>  <Recorded number>
5.87

$$$$
>  <Molecule>
O=C(NCc1cc2nc(N3CCN(C4CC4)c4cc(C5CC5)cnc43)ccc2cn1)c1ccc2c(c1)S(=O)(=O)CCOC2

>  <Recorded number>
6.75

$$$$
>  <Molecule>
C[C@@H]1CN(c2cccc(-c3ccc4cnc(CNC(=O)c5ccc6c(c5)S(=O)(=O)CCOC6)cc4n3)n2)CCO1

>  <Recorded number>
7.54

$$$$
>  <Molecule>
O=C(NCc1cc2nc(N3CCOc4cc(C5CCC5)cnc43)ccc2cn1)c1ccc2c(c1)S(=O)(=O)CCOC2

>  <Recorded number>
6.69

$$$$
>  <Molecule>
CS(=O)(=O)c1cc(C(=O)NCc2cc3nc(-c4cncc(C5CC5)n4)ccc3cn2)ccc1F

>  <Recorded number>
5.30

$$$$
>  <Molecule>
C[C@@H]1C=C(c2cccc(-c3ccc4cnc(CNC(=O)c5ccc6c(c5)S(=O)(=O)CCOC6)cc4n3)n2)C[C@H](C)O1

>  <Recorded number>
7.70

$$$$
>  <Molecule>
C[C@@H]1CN(c2cccc(-c3ccc4cnc(CNC(=O)c5ccc6c(c5)S(=O)(=O)CCC(F)C6)cc4n3)n2)C[C@H](C)O1 (stereo partly drawn)

>  <Recorded number>
7.93

$$$$
>  <Molecule>
O=C(NCc1cc2nc(N3CCOc4ccc(C5CC5)c(F)c43)ccc2cn1)c1ccc2c(c1)S(=O)(=O)CCOC2

>  <Recorded number>
7.21

$$$$
>  <Molecule>
COCc1ccc(C(=O)NCc2cc3nc(-c4cncc(C5CC5)n4)ccc3cn2)cc1S(C)(=O)=O

>  <Recorded number>
5.55

$$$$
>  <Molecule>
C[C@]1(c2cccc(-c3ccc4cnc(CNC(=O)c5ccc6c(c5)S(=O)(=O)CCOC6)cc4n3)n2)CC1(F)F

>  <Recorded number>
5.91

$$$$
>  <Molecule>
O=C(NCc1cc2nc(-c3cccc4c3CCCN4CC(F)F)ccc2cn1)c1ccc2c(c1)S(=O)(=O)CCOC2

>  <Recorded number>
5.39

$$$$
>  <Molecule>
O=C(NCc1cc2nc(N3CCCc4cc5c(cc43)OCO5)ccc2cn1)c1ccc2c(c1)S(=O)(=O)CCOC2

>  <Recorded number>
6.87

$$$$
>  <Molecule>
O=C(NCc1cc2nc(-c3cccc(N4CCC4)c3)ccc2cn1)c1ccc2c(c1)S(=O)(=O)CCOC2

>  <Recorded number>
6.31

$$$$
>  <Molecule>
O=C(NCc1cc2nc(N3CCOc4cc(C5CC5)ccc43)cnc2cn1)c1ccc2c(c1)S(=O)(=O)CCOC2

>  <Recorded number>
6.42

$$$$
>  <Molecule>
COCCOc1cccc(-c2ccc3cnc(CNC(=O)c4ccc5c(c4)S(=O)(=O)CCOC5)cc3n2)c1

>  <Recorded number>
5.97

$$$$
>  <Molecule>
O=C(NCc1cc2nc(N3CCCc4ccc(C(F)CF)nc43)ccc2cn1)c1ccc2c(c1)S(=O)(=O)CCOC2 (stereo not drawn)

>  <Recorded number>
5.96

$$$$
>  <Molecule>
COCc1cc2c(cn1)N(c1ccc3cnc(CNC(=O)c4ccc5c(c4)S(=O)(=O)CCOC5)cc3n1)CCC2

>  <Recorded number>
6.02

$$$$
>  <Molecule>
C[C@@H]1C[C@@H]1c1ccc2c(n1)N(c1ccc3cnc(CNC(=O)c4ccc5c(c4)S(=O)(=O)CCOC5)cc3n1)CCO2

>  <Recorded number>
6.04

$$$$
>  <Molecule>
COCc1cc2c(c(F)c1Cl)N(c1ccc3cnc(CNC(=O)c4ccc5c(c4)S(=O)(=O)CCOC5)cc3n1)CCO2

>  <Recorded number>
7.52

$$$$
>  <Molecule>
O=C(NCc1cc2nc(N3CCOc4cnc(C5CC5)c(F)c43)ccc2cn1)c1ccc2c(c1)S(=O)(=O)CCOC2

>  <Recorded number>
6.69

$$$$
>  <Molecule>
C[C@@H]1CN(c2cccc(-c3ccc4cnc(CNC(=O)c5ccc(Cl)c(S(C)(=O)=O)c5)cc4n3)n2)C[C@@H](C)O1

>  <Recorded number>
6.65

$$$$
>  <Molecule>
O=C(NCc1cc2nc(-c3cccc(C4CC4)n3)cnc2cn1)c1ccc2c(c1)S(=O)(=O)CCOC2

>  <Recorded number>
5.93

$$$$
>  <Molecule>
O=C(NCc1cc2nc(N3CCCc4ncccc43)ccc2cn1)c1ccc2c(c1)S(=O)(=O)CCOC2

>  <Recorded number>
5.72

$$$$

---

This listing pairs compounds with measured Ratio* (BRG1 IC50 (μM) divided by BRM IC50 (μM)).
# Target or system: BRM (Homo sapiens)
# Construct: made in house; host or cells: High Five insect cells
# Sequence (P51531 whole entry): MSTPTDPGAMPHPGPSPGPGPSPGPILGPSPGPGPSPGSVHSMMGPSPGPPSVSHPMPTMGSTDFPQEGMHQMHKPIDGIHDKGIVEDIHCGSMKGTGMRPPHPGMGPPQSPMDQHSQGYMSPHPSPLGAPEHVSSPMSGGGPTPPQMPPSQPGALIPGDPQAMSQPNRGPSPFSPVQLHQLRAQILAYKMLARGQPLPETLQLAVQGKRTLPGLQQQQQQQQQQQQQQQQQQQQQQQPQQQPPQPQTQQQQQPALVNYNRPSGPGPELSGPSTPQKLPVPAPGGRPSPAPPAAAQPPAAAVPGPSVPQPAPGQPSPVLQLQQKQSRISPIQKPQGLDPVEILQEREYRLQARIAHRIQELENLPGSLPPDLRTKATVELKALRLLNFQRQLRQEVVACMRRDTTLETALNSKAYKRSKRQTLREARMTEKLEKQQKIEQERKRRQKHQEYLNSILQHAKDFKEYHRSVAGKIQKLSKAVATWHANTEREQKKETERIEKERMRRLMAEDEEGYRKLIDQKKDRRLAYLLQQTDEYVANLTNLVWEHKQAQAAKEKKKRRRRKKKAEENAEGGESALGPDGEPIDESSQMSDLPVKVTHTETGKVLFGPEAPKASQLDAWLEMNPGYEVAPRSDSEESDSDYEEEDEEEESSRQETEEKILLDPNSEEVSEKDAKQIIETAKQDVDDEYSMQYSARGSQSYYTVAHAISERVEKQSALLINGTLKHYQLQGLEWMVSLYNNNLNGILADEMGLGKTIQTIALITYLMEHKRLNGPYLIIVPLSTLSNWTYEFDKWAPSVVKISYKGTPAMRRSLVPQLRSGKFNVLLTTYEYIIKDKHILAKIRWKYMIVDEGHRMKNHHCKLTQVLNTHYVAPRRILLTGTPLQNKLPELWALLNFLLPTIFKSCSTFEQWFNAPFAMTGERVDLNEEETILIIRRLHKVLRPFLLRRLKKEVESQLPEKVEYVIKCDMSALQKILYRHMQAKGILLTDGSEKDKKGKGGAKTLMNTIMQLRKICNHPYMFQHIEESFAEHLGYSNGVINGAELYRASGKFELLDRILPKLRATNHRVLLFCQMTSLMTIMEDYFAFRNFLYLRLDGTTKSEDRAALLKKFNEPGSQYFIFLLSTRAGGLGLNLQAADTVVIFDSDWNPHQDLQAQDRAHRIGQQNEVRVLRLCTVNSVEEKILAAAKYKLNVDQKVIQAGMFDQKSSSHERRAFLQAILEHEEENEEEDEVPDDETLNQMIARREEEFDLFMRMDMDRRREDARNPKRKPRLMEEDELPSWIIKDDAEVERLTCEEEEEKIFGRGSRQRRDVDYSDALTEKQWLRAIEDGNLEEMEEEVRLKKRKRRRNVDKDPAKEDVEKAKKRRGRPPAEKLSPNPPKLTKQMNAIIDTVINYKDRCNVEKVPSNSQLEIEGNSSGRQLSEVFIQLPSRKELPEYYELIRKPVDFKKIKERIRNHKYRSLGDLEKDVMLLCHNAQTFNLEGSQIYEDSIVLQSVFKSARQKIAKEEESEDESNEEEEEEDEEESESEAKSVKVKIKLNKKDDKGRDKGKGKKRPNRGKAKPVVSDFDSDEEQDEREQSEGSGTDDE
# Assay notes: ATPase catalytic activity of BRM, ADP-Glo in vitro biochemical assay
# Condition details: selectivity ratio BRG1 IC50 / BRM IC50
Readout label: Ratio* (BRG1 IC50 (μM) divided by BRM IC50 (μM))

>  <Compound>
O=C(NCc1cc2nc(-c3ccc4ccn(CC(F)F)c4n3)ccc2cn1)c1ccc2c(c1)S(=O)(=O)CCOC2 [Compound 140]

>  <Result>
6.92

$$$$
>  <Compound>
CO[C@H](C)CN(C)c1cccc(-c2ccc3cnc(CNC(=O)c4ccc5c(c4)S(=O)(=O)CCOC5)cc3n2)n1 [Compound 55]

>  <Result>
9.45

$$$$
>  <Compound>
CS(=O)(=O)c1cc(C(=O)NCc2cc3nc(-c4cccc(N5CC[C@@H]6OCC[C@H]6C5)n4)ccc3cn2)ccc1C(F)F [Compound 123]

>  <Result>
12.51

$$$$
>  <Compound>
O=C(NCc1cc2nc(-c3cccc(N4CCC4)c3)ccc2cn1)c1ccc2c(c1)S(=O)(=O)CCOC2 [Compound 255]

>  <Result>
13.37

$$$$
>  <Compound>
COC[C@H](C)Nc1cccc(-c2ccc3cnc(CNC(=O)c4ccc(C(F)F)c(S(C)(=O)=O)c4)cc3n2)n1 [Compound 61]

>  <Result>
5.23

$$$$
>  <Compound>
COC1CN(c2cccc(-c3ccc4cnc(CNC(=O)c5ccc6c(c5)S(=O)(=O)CCOC6)cc4n3)n2)C1 [Compound 228]

>  <Result>
13.77

$$$$
>  <Compound>
C[C@@H]1CN(c2cccc(-c3ccc4cnc([C@H](C)NC(=O)c5ccc6c(c5)S(=O)(=O)CCOC6)cc4n3)n2)C[C@H](C)O1 [Compound 122]

>  <Result>
6.56

$$$$

Ref: patent US20230416248A1
